Data provenance: ChEMBL document CHEMBL3227940

System: cytochrome P450
Test: Inactivation of cytochrome P450 in rat liver microsomes assessed as inhibition of aminopyrine demethylation at 1 mM preincubated for 12 mins measured 5 mins after substrate addition by Nash reagent based colorimetry in absence of cofactor NADPH-generating system (reference value: 0%)
Type: ADME
Settings: probe aminopyrine
value-type: inhibition at 5 min, 1000 µM (%)
Give just the numeric value; % need not be written.

# molecule `c1ccc(CNC2CC2)cc1` ; its inhibition at 5 min, 1000 µM = 13

###

Tested on: cytochrome P450
Assay: Inactivation of cytochrome P450 in rat liver microsomes assessed as inhibition of aminopyrine demethylation at 1 mM preincubated for 12 mins measured 5 mins after substrate addition by Nash reagent based colorimetry in presence of flavoprotein amine oxidase alternate substrate-inhibitor methimazole (reference value: 0%)
Assay type: ADME
Settings: probe aminopyrine
value-type: inhibition at 5 min, 1000 µM (%)
Give just the numeric value; % need not be written.

Lab note: molecule `c1ccc(CNC2CC2)cc1` tested on cytochrome P450; recorded inhibition at 5 min, 1000 µM was 57
